Kindly supply the reported pest or weed control at 25 ppm values for the records listed here.
# System: Botrytis cinerea
# Assay name: Botrytis test (beans)/protective
# Format: in vivo
# Run conditions: Botrytis cinerea, 48 h, Table F, test 1; 25 ppm a.i.; read-out: Efficacy in % found
Unit % implied. Number only.

Lookup: For CO/N=C(/C1=NOCCO1)c1ccccc1Oc1ncnc(Oc2ccccc2Cl)c1F [(3.8), fluoxastrobin] , what is its reported pest or weed control at 25 ppm?
Found: 8

Lookup: Find the recorded pest or weed control at 25 ppm belonging to Fc1ccc([C@]2(Cn3cncn3)O[C@H]2c2ccccc2Cl)cc1 (racemic) [(1.12), epoxiconazole] and report it.
Found: 49

Lookup: Endpoint output: pest or weed control at 25 ppm of CC(C)(C)C(O)(CCc1ccc(Cl)cc1)Cn1cncn1 (stereo not shown) [(1.47), tebuconazole] . Value?
Found: 4

Lookup: Using the record for Cn1c(=O)c2sc3c(=O)n(C)c(=O)c3sc2c1=O [(I-1)] , report its pest or weed control at 25 ppm.
Found: 0

Recorded values, source patent US9006139B2.
